Entries annotated with measured peptide exchange yield
- targetOfAssay: T1, HLA-A*02:01 (human)
- T1 construct: captured on streptavidin plates; also called peptide-receptive MHC molecules
- measurementNotes: UV peptide exchange ELISA (anti-b2m); yield grade: + >10%, ++ >20%, +++ >50, ++++ >75%

[
  {
    "binder": "ILDEGHILQL",
    "peptide exchange yield": "> 75%"
  },
  {
    "binder": "AVDNILLKL",
    "peptide exchange yield": "50 to 75%"
  },
  {
    "binder": "FADELSHLL",
    "peptide exchange yield": "50 to 75%"
  },
  {
    "binder": "SLYSYFQKV",
    "peptide exchange yield": "> 75%"
  },
  {
    "binder": "SLLPTEQPRL",
    "peptide exchange yield": "50 to 75%"
  }
]

-- ask Return peptide exchange yield for the following binder: "KTWDQVPFSV"
-- reply > 75%

-- ask Recall and state the measured peptide exchange yield for "NMMSGISSV" .
-- reply 50 to 75%
